B1: TPR 5TU (parent)
chain: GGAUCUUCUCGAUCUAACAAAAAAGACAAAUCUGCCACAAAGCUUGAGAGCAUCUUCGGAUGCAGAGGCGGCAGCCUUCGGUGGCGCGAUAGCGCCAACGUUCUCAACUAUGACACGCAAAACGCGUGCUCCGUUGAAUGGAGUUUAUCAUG

variants of: B1; test: polymerase ribozyme fitness, log enrichment relative to wild type (log ratio); higher = more active; in vitro selection for triplet polymerase activity
Variants at the floor of the assay were thinned out.
experimental-endpoint: polymerase ribozyme fitness (log ratio)
The response must contain the number and no unit.

Completed entries (count: 4):
* A16C C32U A122G | -3.01
* U13C C38U G86A G124C | -1.98
* A12U G84U | -1.97
* C93G C123U G141U | -2.27

q: Endpoint output: polymerase ribozyme fitness (log ratio) of A39C A41C A115G G124A . Value?
a: -3.47

q: Endpoint output: polymerase ribozyme fitness (log ratio) of "G50A" . Value?
a: -1.02
